biological target: PKA (Homo sapiens, UniProt P17612); assay: PKA inhibition assay (ADP-Glo); assay type: biochemical; settings: Table 2, μM ± SD
Here the recorded IC50 is given for each entry.

Cc1[nH]c(/C=C2\C(=O)Nc3ccc(C(=O)N[C@H](C)c4ccc(F)cc4)cc32)c(C)c1NC(=O)CCl [Compound 9j]    > 250 µM
Cc1cccc([C@@H](C)NC(=O)c2ccc3c(c2)/C(=C/c2[nH]c(C)c(NC(=O)CCl)c2C)C(=O)N3)c1 [Compound 9i]    > 250 µM
Cc1[nH]c(/C=C2\C(=O)Nc3ccc(C(=O)N[C@H](C)c4cccc(Cl)c4)cc32)c(C)c1NC(=O)CCl [Compound 9m]    > 250 µM

The molecule identified as Cc1[nH]c(/C=C2\C(=O)Nc3ccc(C(=O)NC4(c5ccccc5)COC4)cc32)c(C)c1NC(=O)CCl [Compound 9t] registered its IC50 at 69 µM

The measured IC50 associated with Cc1[nH]c(/C=C2\C(=O)Nc3ccc(C(=O)NC(C)(C)c4ccccc4)cc32)c(C)c1NC(=O)CCl [Compound 9s] reads > 250 µM

Reported IC50 for Cc1[nH]c(/C=C2\C(=O)Nc3ccc(C(=O)NCc4ccccc4)cc32)c(C)c1NC(=O)CCl [Compound 9q] was > 250 µM

These measurements were taken from patent US20230212120A1.
